Reference source for all entries: ChEMBL document CHEMBL4396893

target: UniProt P10415; test: Inhibition of Flu-BakBH3 peptide binding to recombinant human Bcl2 after 15 mins by fluorescence polarization assay
Measurement Type: Ki (nM)

                              smiles_string    study_system  measurement_type  unit_label  test_value
0  CC1=C(C2=C(C)C(=O)c3c(cc(O)c(O)c3C(C)C)C2=O)C(=O)c2cc(O)c(O)c(C(C)C)c2C1=O  UniProt P10415                Ki          nM          35

----------
target: Apoptosis regulator Bcl-2 (Homo sapiens, UniProt P10415); test: Inhibition of Flu-BakBH3 peptide binding to GST-tagged Bcl2 (unknown origin) after 30 mins by fluorescence polarization assay
Sequence (P10415 whole entry): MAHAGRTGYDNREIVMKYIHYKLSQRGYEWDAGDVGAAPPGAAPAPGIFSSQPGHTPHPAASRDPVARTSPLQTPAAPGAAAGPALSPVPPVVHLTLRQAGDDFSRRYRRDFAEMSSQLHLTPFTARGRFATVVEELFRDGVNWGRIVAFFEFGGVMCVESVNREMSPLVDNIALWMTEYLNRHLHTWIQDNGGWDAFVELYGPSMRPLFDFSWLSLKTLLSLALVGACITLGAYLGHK
Measurement Type: Ki (µM)

In [3]: df
Out[3]:
                                   molecule  unit_label  test_value
0  COC(=O)C1=C(N)Oc2ccc(Br)cc2C1C(C#N)C(=O)OC (stereo unspecified)          µM           9

----------
Biological target: Bcl-2-like protein 2 (Homo sapiens, UniProt Q92843)
Sequence (Q92843 whole entry): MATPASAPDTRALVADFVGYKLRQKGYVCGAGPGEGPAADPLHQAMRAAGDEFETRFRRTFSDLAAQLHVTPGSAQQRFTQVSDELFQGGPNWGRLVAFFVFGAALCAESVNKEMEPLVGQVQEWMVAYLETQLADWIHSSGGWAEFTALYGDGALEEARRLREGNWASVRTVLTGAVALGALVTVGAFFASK
pKi: −log10 of the molar value.
Measurement Type: pKi

>>> df
                              smiles_string                              study_system  measurement_type  test_value
0  Cc1cc2c(C(C)C)c(O)c(O)cc2c(O)c1-c1c(C)cc2c(C(C)C)c(O)c(O)cc2c1O  Bcl-2-like protein 2 (Homo sapiens, UniProt Q92843)               pKi        5.68
1  COC1=CC(c2cc3ccccc3[nH]2)=N/C1=C\c1[nH]c(C)cc1C  Bcl-2-like protein 2 (Homo sapiens, UniProt Q92843)               pKi        5.15

----------
Molecular target: Adenosine receptor A1 (Homo sapiens)
Sequence (P30542 whole entry): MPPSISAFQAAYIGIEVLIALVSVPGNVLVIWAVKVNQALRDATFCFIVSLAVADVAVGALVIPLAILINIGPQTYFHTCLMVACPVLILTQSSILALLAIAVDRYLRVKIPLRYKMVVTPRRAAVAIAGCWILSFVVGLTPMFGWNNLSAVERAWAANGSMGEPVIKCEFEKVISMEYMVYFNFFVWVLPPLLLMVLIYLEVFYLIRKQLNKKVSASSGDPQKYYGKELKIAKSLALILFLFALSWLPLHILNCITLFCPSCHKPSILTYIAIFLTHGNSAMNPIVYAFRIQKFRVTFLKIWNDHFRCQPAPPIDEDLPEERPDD
Measurement Type: Ki (µM)

>>> print(df.to_string())
                              smiles_string  measurement_type  test_value
0  COC1=CC(c2cc3ccccc3[nH]2)=N/C1=C\c1[nH]c(C)cc1C                Ki           5
